Molecular target: ChtCP (Chitinophaga sp. CB10, UniProt A0A822ZZF9)
Construct: homodimer; motifs 76HHPEL80 and 267HEXXH271
Sequence (A0A822ZZF9 entry or part of it): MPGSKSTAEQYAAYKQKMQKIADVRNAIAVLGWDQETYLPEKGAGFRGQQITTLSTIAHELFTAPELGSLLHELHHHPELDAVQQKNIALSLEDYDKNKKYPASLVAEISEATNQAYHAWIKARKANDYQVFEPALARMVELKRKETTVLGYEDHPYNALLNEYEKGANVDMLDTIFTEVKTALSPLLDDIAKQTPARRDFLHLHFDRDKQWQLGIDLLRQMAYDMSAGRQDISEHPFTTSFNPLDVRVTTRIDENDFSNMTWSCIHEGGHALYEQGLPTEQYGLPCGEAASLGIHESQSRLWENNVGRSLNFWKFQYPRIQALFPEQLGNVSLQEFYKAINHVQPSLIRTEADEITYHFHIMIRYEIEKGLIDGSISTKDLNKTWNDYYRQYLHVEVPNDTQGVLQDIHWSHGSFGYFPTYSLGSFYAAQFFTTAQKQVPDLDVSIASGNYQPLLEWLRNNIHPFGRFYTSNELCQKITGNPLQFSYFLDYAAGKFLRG
Assay: Cd-ninhydrin assay of released amino acids, A500, Michaelis-Menten fit
Format: biochemical
Details: 50 mM HEPES pH 8.0, 65 °C; substrate 0.195 to 25 mM; metal addition not stated
Peptide text beside a SMILES is read from it. * marks the point of attachment. Cbz = O=C(OCc1ccccc1)*
Collected Km values appear next to each entry.
Could you give me the number in mM? Just the number is fine.

Solved cases below.
compound | Km / mM
C[C@H](NC(=O)OCc1ccccc1)C(=O)N[C@@H](Cc1c[nH]c2ccccc12)C(=O)O [ZAW, benzyloxycarbonyl Ala-Trp] (Cbz-Ala-Trp-OH) | 1.1
C[C@H](NC(=O)OCc1ccccc1)C(=O)N[C@@H](CC(N)=O)C(=O)O [ZAN, benzyloxycarbonyl Ala-Asn] (Cbz-Ala-Asn-OH) | 34.1
C[C@H](NC(=O)OCc1ccccc1)C(=O)N[C@@H](CCCNC(=N)N)C(=O)O [ZAR, benzyloxycarbonyl Ala-Arg] (Cbz-Ala-Arg-OH) | 3.51

I am curious: what Km value has been reported for C[C@H](NC(=O)[C@H](C)NC(=O)OCc1ccccc1)C(=O)O [ZAA, benzyloxycarbonyl Ala-Ala] (Cbz-Ala-Ala-OH) ?
28.1
